Each entry below lists one item and its recorded half-life value.
# assay remarks: Half life in 50 mM phosphate buffer at pH 7.4 by HPLC method
# Type: physicochemical
Reply numerically in h, unit not repeated.

structure smiles string | unit of measurement | half-life
CCCCCCCC(=O)/N=C(\N)N[C@H]1C=C(C(=O)O)O[C@@H]([C@H](O)[C@H](O)CO)[C@@H]1NC(C)=O | h | 39.2

Could you now look at the following molecule, please?
What does the data say about its half-life? Entry: "CCC(CC)O[C@@H]1C=C(C(=O)O)C[C@H](N/C(N)=N/C(=O)[C@@H](C)c2ccc3cc(OC)ccc3c2)[C@H]1NC(C)=O"
64.9

----------
# assay remarks: Half life in borate buffer at pH 9.1 by HPLC method
# Type: physicochemical
measured metric: half-life (h)
Reply numerically in h, unit not repeated.

In the examples that follow, each entry is paired with its recorded half-life.
structure smiles string | half-life (h)
CCC(CC)O[C@@H]1C=C(C(=O)O)C[C@H](N/C(N)=N/C(=O)[C@@H](C)c2ccc3cc(OC)ccc3c2)[C@H]1NC(C)=O | 76.7
CCCCCCCC(=O)/N=C(\N)N[C@H]1C=C(C(=O)O)O[C@@H]([C@H](O)[C@H](O)CO)[C@@H]1NC(C)=O | 26.1

Could you now look at the following compound, please?
What does the data say about its half-life? Entry: "CCCCCCCC(=O)/N=C(\N)N[C@H]1CC(C(=O)O)=C[C@@H](OC(CC)CC)[C@@H]1NC(C)=O"
18.1

----------
# assay remarks: Half life in HCl/KCl solution at pH 1.3 by HPLC method
# Assay type: physicochemical
Each entry below lists one item and its recorded half-life value.

structure smiles string | measured metric | reading
CCC(CC)O[C@@H]1C=C(C(=O)O)C[C@H](N/C(N)=N/C(=O)[C@@H](C)c2ccc3cc(OC)ccc3c2)[C@H]1NC(C)=O | half-life | > 96 h
CCCCCCCC(=O)/N=C(\N)N[C@H]1CC(C(=O)O)=C[C@@H](OC(CC)CC)[C@@H]1NC(C)=O | half-life | > 96 h

Could you now look at the following molecule, please?
What does the data say about its half-life? Entry: "CCCCCCCC(=O)/N=C(\N)N[C@H]1C=C(C(=O)O)O[C@@H]([C@H](O)[C@H](O)CO)[C@@H]1NC(C)=O"
> 96 h

----------
# assay remarks: Half life in acetate buffer at pH 4.1 by HPLC method
# Type: physicochemical
measured metric: half-life

What does the data say about its half-life? Entry: "CCCCCCCC(=O)/N=C(\N)N[C@H]1C=C(C(=O)O)O[C@@H]([C@H](O)[C@H](O)CO)[C@@H]1NC(C)=O"
> 96 h

----------
# assay remarks: Chemical stability in HCl/KCl solution at pH 1.3 assessed as parent compound remaining after 96 hrs by HPLC method
# Assay type: physicochemical
# reported conditions: read-out: Stability
measured metric: remaining at 96 h

In the examples that follow, each entry is paired with its recorded remaining at 96 h.
structure smiles string | reading
CCCCCCCC(=O)/N=C(\N)N[C@H]1C=C(C(=O)O)O[C@@H]([C@H](O)[C@H](O)CO)[C@@H]1NC(C)=O | > 75%
CCC(CC)O[C@@H]1C=C(C(=O)O)C[C@H](N/C(N)=N/C(=O)[C@@H](C)c2ccc3cc(OC)ccc3c2)[C@H]1NC(C)=O | > 75%

Could you now look at the following compound, please?
What does the data say about its remaining at 96 h? Entry: "CCCCCCCC(=O)/N=C(\N)N[C@H]1CC(C(=O)O)=C[C@@H](OC(CC)CC)[C@@H]1NC(C)=O"
> 75%
